Exercise: for every item that follows, state its recorded kon.
STUDY_SYSTEM: T1, Human OX40 (Sino Biological Inc) (human, UniProt P43489 29-216, limits assumed)
T1 construct: Bought soluble protein used as SPR analyte; also called huOX40
T1 sequence: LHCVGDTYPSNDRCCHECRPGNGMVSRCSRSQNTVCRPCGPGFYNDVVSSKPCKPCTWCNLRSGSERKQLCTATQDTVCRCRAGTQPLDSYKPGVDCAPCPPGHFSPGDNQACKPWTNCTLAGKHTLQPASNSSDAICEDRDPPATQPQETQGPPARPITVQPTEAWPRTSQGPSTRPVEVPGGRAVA
PROCEDURE_SUMMARY: SPR (Biacore), antibody captured via anti-human Fc, huOX40 analyte
I'd appreciate it if you included the unit after the number.

Incoming: Reported kon, binder 3C8.gr.11 (antibody, V domains shown, human Fc) VH: EVQLVQSGAEVKKPGASVKVSCKASGYAFTNYLIEWVRQAPGQGLEWIGVINPGSGDTYYSEKFKGRVTLTRDTSTSTAYLELSSLRSEDTAVYYCARDRLDYWGQGTLVTVSS VL: DIQMTQSPSSLSASVGDRVTITCHASQDISSYIVWYQQKPGKAPKGLIYHGTNLEDGVPSRFSGSGSGTDFTLTISSLQPEDFATYYCVHYAQFPYTFGQGTKVEIK : ____
Outgoing: 321000 M⁻¹ s⁻¹

Incoming: Reported kon, binder 3C8.gr.DQ (antibody, V domains shown, also called 3C8.gr.5.DQ) VH: EVQLVQSGAEVKKPGASVKVSCKASGYAFTNYLIEWVRQAPGQGLEWIGVINPGSGDQYYSEKFKGRVTLTADTSTSTAYLELSSLRSEDTAVYYCARDRLDYWGQGTLVTVSS VL: DIQMTQSPSSLSASVGDRVTITCHASQDISSYIVWYQQKPGKSFKGLIYHGTNLEDGVPSRFSGSGSGTDFTLTISSLQPEDFATYYCVHYAQFPYTFGQGTKVEIK : ____
Outgoing: 381000 M⁻¹ s⁻¹

Incoming: Reported kon, binder 3C8.gr.1 (antibody, V domains shown, human Fc) VH: EVQLVQSGAEVKKPGASVKVSCKASGYAFTNYLIEWVRQAPGQGLEWIGVINPGSGDTYYSEKFKGRVTITRDTSTSTAYLELSSLRSEDTAVYYCARDRLDYWGQGTLVTVSS VL: DIQMTQSPSSLSASVGDRVTITCHASQDISSYIVWYQQKPGKAPKLLIYHGTNLEDGVPSRFSGSGSGTDFTLTISSLQPEDFATYYCVHYAQFPYTFGQGTKVEIK : ____
Outgoing: 412000 M⁻¹ s⁻¹

Where do these numbers come from? They come from patent US20150307617A1.
